Test: clinical
Details: human, in vivo, po, 850 mg
Metric: CL renal (mL/min)

1. CN(C)C(=N)N=C(N)N [metformin] | 287

---

Assay: clinical
Conditions: human, in vivo
Metric: Cmax (ng/mL)

1. CN(C)C(=N)N=C(N)N [metformin] | 1130

---

Assay: clinical
Conditions: human, in vivo
Metric: Tmax (h)

1) CN(C)C(=N)N=C(N)N | 4.5

---

Target: OCT2 (Homo sapiens, UniProt O15244)
Sequence (O15244 whole entry): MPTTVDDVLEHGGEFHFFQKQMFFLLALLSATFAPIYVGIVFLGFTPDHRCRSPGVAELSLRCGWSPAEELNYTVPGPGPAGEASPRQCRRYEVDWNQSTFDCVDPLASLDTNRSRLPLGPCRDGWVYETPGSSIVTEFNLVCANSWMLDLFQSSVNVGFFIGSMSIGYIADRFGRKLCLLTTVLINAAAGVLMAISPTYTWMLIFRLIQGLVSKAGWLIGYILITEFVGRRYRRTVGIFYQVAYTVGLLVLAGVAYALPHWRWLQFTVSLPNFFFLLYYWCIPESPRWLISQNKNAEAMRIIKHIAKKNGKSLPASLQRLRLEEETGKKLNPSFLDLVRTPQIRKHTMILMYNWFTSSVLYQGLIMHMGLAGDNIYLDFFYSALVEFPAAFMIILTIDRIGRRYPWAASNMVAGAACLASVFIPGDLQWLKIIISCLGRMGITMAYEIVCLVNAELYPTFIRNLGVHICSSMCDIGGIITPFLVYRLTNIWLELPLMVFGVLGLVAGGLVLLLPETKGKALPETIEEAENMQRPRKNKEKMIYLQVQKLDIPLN
Assay: clinical
Conditions: plasma, oral
Metric: AUC(0-inf) (ng·h/mL)

1. CN(C)C(=N)N=C(N)N | 12500
